Test system: SARS-CoV-2 (Omicron variant, B.1.1.529.1/BA.1 sublineage)
test: microbe, parasite or virus in culture
Type: cell-based
test-conditions: Severe acute respiratory syndrome coronavirus 2, Vero C1008, 48 h, read-out: 50% Reduction in Viral RNA Copy (EC50)
observable: EC50 (nM)
Just the number please, in nM, no unit attached.

Before answering, review these 2 worked examples.
- compound: "Nc1nnc(CC(O)(Cc2nnc(N)s2)c2nnc(N)s2)s1 [CoViTris2022]"
  experimental-result: 700
- compound: "Nc1nnc([C@H](O)[C@@H](O)c2nnc(N)s2)s1 [Taroxaz-26]"
  experimental-result: 770

Proceeding to the next compound to report its EC50.
q: // map Nc1nnc(-c2cnc3cc(Cl)ccc3c2O)s1 [ChloViD2022] to recorded EC50 (system: SARS-CoV-2 (Omicron variant, B.1.1.529.1/BA.1 sublineage))
a: 440
